biological target: PDE1C (Homo sapiens); construct: cell lysate containing full length PDE7A, PDE7B and PDE1C enzyme; assay: PDE1C [3H]-cAMP scintillation proximity assay (SPA) enzyme inhibition; conditions: full length PDE1C in cell lysate; 75 nM cAMP; Ki from IC50 by Cheng-Prussof equation
Sequence (Q14123 whole entry): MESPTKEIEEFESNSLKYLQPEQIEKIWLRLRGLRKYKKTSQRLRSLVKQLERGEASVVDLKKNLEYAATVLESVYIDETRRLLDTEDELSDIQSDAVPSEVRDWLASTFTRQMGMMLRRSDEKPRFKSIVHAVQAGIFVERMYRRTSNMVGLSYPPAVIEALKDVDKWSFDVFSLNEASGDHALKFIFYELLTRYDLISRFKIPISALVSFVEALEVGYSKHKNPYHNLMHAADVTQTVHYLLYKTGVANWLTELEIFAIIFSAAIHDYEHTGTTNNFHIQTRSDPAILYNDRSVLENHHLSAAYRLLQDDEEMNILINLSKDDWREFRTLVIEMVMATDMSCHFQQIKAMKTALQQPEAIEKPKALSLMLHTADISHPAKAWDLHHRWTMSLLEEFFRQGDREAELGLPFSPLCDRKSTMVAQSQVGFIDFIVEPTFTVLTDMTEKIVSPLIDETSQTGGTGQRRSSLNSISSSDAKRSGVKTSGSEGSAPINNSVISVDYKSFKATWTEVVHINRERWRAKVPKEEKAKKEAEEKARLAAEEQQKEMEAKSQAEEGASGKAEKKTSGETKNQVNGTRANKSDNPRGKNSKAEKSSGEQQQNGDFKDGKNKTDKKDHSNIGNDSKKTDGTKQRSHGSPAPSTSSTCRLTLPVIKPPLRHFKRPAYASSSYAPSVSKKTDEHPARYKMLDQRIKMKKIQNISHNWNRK
pKi: −log10 of the molar value.
Assign 1 whenever pKi does not fall below 6; assign 0 whenever it does.

## Input Does "O=C1Nc2c(Cl)ccc(Oc3c(F)cccc3C(=O)O)c2C2(CCCCC2)N1" have a reported pKi of at least 6?
## Output 1

## Input Another compound: "O=C1Nc2c(Cl)ccc(-c3ccc(F)c(C(=O)O)c3)c2C2(CCCCC2)N1"
## Output 0

## Input Check "O=C(O)COc1cccc(-c2ccc(Cl)c3c2C2(CCCCC2)NC(=O)N3)c1" too.
## Output 0

## Input Now try "O=C1Nc2c(Cl)ccc(Oc3c(F)cccc3-c3nn[nH]n3)c2C2(CCCCC2)N1" .
## Output 1

## Input Another compound: "O=C1Nc2c(Cl)ccc(-c3ccc(C(=O)O)c(F)c3)c2C2(CCCCC2)N1"
## Output 0

## Input What do we get for "O=C1Nc2c(F)ccc(Oc3c(F)cccc3-c3nn[nH]n3)c2C2(CCCCC2)N1" ?
## Output 1

## Input Another compound to check: O=C1Nc2c(Cl)ccc(OCc3ccc(C(=O)O)o3)c2C2(CCCCC2)N1 [Compound C, reference compound]
## Output 1

## Input Cool, now O=C1Nc2c(Cl)cc(-c3ccc(C(=O)O)cc3)cc2C2(CCCCC2)N1 [Compound B, reference compound]
## Output 1

## Input Again, but for "O=C(O)COc1ccc(Oc2ccc(Cl)c3c2C2(CCCCC2)NC(=O)N3)cc1"
## Output 1
